- testDescription: qHTS Assay for Lipid Storage Modulators in Drosophila S3 Cells
- conditionDetails: BODIPY lipid droplet fluorescence, 18-24 h, cells fed with added oleic acid; series mostly up to 46.1 µM
Out of some 320,000 compounds screened, about 2,100 (0.66%) were called active. Roughly 53% stayed inconclusive and do not appear here. Calls follow the shape of the dose curve; as a rule, active = well fitted inhibition curve with a large enough effect in the signal ratio, with a control signal flat (not every such curve was filed as active); inconclusive = small, poorly fitted or top-dose-only effect, or effect the other way, or a change in a side signal; inactive = flat fitted curve, though single readings scatter; the % refers to the signal ratio. This excerpt belongs to a sample that is enriched for actives.
Possible outcomes: yes (1) (active), no (0) (inactive)

>  <compound>
COc1ccc(CCNC(=O)c2ccc3c(c2)NC(=O)C(CSCc2cc(C)ccc2C)N3)cc1OC (centres undefined)

>  <className>
yes (1)

$$$$
>  <compound>
COc1cccc(NC(=O)COC(=O)CCn2c(C)csc2=O)c1

>  <className>
no (0)

$$$$
>  <compound>
Cc1ccc(C2C(C(=O)c3cc4ccccc4o3)=C(O)C(=O)N2CCN2CCOCC2)cc1 (centres undefined)

>  <className>
no (0)

$$$$
>  <compound>
CC(=O)C1=C(O)C(=O)N(CCO)C1c1ccccc1 (centres undefined)

>  <className>
no (0)

$$$$
>  <compound>
CC(=O)C1=C(O)C(=O)N(CCN2CCOCC2)C1c1ccccc1 (centres undefined)

>  <className>
yes (1)

$$$$
>  <compound>
Cc1ccc(S(=O)(=O)Cc2ccc([N+](=O)[O-])cc2)cc1

>  <className>
no (0)

$$$$
>  <compound>
CCCCN1/C(=C/c2cccc[n+]2C)Sc2cc(NC(C)=O)ccc21

>  <className>
yes (1)

$$$$
>  <compound>
CCOC(=O)COc1nc2c(c(-c3ccco3)c1C#N)CCc1ccccc1-2

>  <className>
no (0)

$$$$
>  <compound>
O=S(=O)(NCc1ccccn1)C(F)(F)F

>  <className>
no (0)

$$$$
>  <compound>
O=C(C1=C(O)C(=O)N(CCN2CCOCC2)C1c1ccc(F)cc1)c1cccs1 (centres undefined)

>  <className>
yes (1)

$$$$
>  <compound>
CCOc1cc(C(=S)N2CCN(C)CC2)ccc1OCC(=O)N1CCOCC1

>  <className>
no (0)

$$$$
>  <compound>
Cc1ccc(/C(O)=C2/C(=O)C(=O)N(CCN3CCOCC3)C2c2ccccn2)cc1 (centres undefined)

>  <className>
yes (1)

$$$$
>  <compound>
O=C1C(=O)N(CCN2CCOCC2)C(c2ccccn2)/C1=C(/O)c1ccc(Cl)cc1 (centres undefined)

>  <className>
no (0)

$$$$
>  <compound>
O=P(c1ccccc1)(c1ccccc1)C(O)c1ccncc1 (centres undefined)

>  <className>
no (0)

$$$$
>  <compound>
CCOC(=O)c1c2ccccc2[n+]([O-])n1CCO

>  <className>
yes (1)

$$$$
>  <compound>
CCn1nc(NS(=O)(=O)c2ccc(NC(C)=O)cc2)c2cc3ccccc3nc21

>  <className>
no (0)

$$$$
>  <compound>
CCS(=O)(=O)N1Cc2ccccc2CC1C(=O)Nc1ccc(NC(C)=O)cc1 (centres undefined)

>  <className>
no (0)

$$$$
>  <compound>
COc1ccccc1C(=O)Nc1ccc(C(=O)N2CCCCC2)cc1

>  <className>
no (0)

$$$$
>  <compound>
COc1ccc(C(=O)COC(=O)C(CCSC)NC(=O)COc2ccccc2)cc1 (centres undefined)

>  <className>
no (0)

$$$$
>  <compound>
CC(=O)Oc1ccccc1N(C(C)=O)S(=O)(=O)c1ccc(C)cc1

>  <className>
no (0)

$$$$
>  <compound>
COCCCN1C(=O)C(O)=C(C(=O)c2ccco2)C1c1ccccc1 (centres undefined)

>  <className>
yes (1)

$$$$
>  <compound>
CCOC(=O)c1c(O)c(O)c(C(=O)OCC)n1-c1ccccc1

>  <className>
no (0)

$$$$
>  <compound>
CCCCN(C(=S)NC(=O)c1ccccc1)c1c(N)n(Cc2ccccc2)c(=O)[nH]c1=O

>  <className>
no (0)

$$$$
>  <compound>
CCS(=O)(=O)N1Cc2ccccc2CC1C(=O)NC(C)C12CC3CC(CC(C3)C1)C2 (centres undefined)

>  <className>
yes (1)

$$$$
>  <compound>
Cc1ccc(S(=O)(=O)Cc2cc(F)c([N+](=O)[O-])cc2[N+](=O)[O-])cc1

>  <className>
yes (1)

$$$$
>  <compound>
C=CCC1(N(C(C)=O)c2ccccc2C)CCCCC1

>  <className>
no (0)

$$$$
>  <compound>
CC(=O)NC12CC3CC(C1)CC(C(=O)OCC(=O)NC(=O)c1cccn1C)(C3)C2

>  <className>
no (0)

$$$$
>  <compound>
Cc1noc(C(=O)NCc2cccnc2)c1Cl

>  <className>
no (0)

$$$$
>  <compound>
O=C(C1CCN(c2nnc(-n3cccc3)s2)CC1)N1CCCCC1

>  <className>
no (0)

$$$$
>  <compound>
CCOC(=O)c1sc2nc(C)nc(SCC(=O)N(CC)C3CCS(=O)(=O)C3)c2c1C (centres undefined)

>  <className>
no (0)

$$$$
>  <compound>
CCOc1ccc(C2C(C(=O)c3cccs3)=C(O)C(=O)N2CCN2CCOCC2)cc1 (centres undefined)

>  <className>
no (0)

$$$$
>  <compound>
COc1cccc(NC(=O)C(C)Sc2nnc(C3CC3)n2C2CC2)c1 (centres undefined)

>  <className>
no (0)

$$$$
>  <compound>
C[n+]1ccccc1/C=C1\Sc2ccccc2N1CCO

>  <className>
no (0)

$$$$
>  <compound>
O=C(NC1CCCCC1)c1cccnc1C(=O)O

>  <className>
no (0)

$$$$
>  <compound>
CC(=O)c1ccc([N+](=O)[O-])c(CS(=O)(=O)c2ccc(Cl)cc2)c1

>  <className>
no (0)

$$$$
>  <compound>
O=C1C(=O)N(CCN2CCOCC2)C(c2ccccn2)/C1=C(/O)c1ccccc1 (centres undefined)

>  <className>
no (0)

$$$$
>  <compound>
CC(=O)COc1nc2c(c(-c3ccco3)c1C#N)CCc1ccccc1-2

>  <className>
no (0)

$$$$
>  <compound>
CCOC(=O)C1CCCN(C(=O)C2CCN(c3nnc(-n4cccc4)s3)CC2)C1 (centres undefined)

>  <className>
yes (1)

$$$$
>  <compound>
O=C(COC(=O)CC12CC3CC(CC(Br)(C3)C1)C2)NC(=O)NCc1ccco1

>  <className>
no (0)

$$$$
>  <compound>
Nc1[nH][nH]c(=O)c1N=Nc1cccc(Cl)c1

>  <className>
no (0)

$$$$
>  <compound>
CCS(=O)(=O)N1Cc2ccccc2CC1C(=O)Nc1ccc(C)cc1 (centres undefined)

>  <className>
no (0)

$$$$
>  <compound>
COc1ccc(OC)c(NC=C2C(=O)OC3(CCCCC3)OC2=O)c1

>  <className>
no (0)

$$$$
>  <compound>
COCc1cc(C)nc(SCC[N+](C)(C)CC(=O)c2ccc(Br)cc2)c1C#N

>  <className>
no (0)

$$$$
>  <compound>
COCCN1C(=O)C(O)=C(C(=O)c2ccco2)C1c1cccc(Oc2ccccc2)c1 (centres undefined)

>  <className>
no (0)

$$$$

All figures here come from PubChem BioAssay AID2685.
